- assay.protocol: Brain pharmacokinetics in mice
- Assay type: in vivo
- condition.info: 25 mg/kg single dose P.O., 24.00 h
assay.readout: Mean Brain Concentration

Which Mean Brain Concentration value belongs to `COc1ccc(/C=C/c2cc(OC)cc(B(O)O)c2)cc1` ? 0 ng/g

###

- assay.protocol: Caco-2 permeability
- Type: in vitro ADME
- condition.info: human, Caco-2; A-B
assay.readout: Papp A→B (×10⁻⁶ cm/s)
# number only, unit ×10⁻⁶ cm/s dropped from output

Which Papp A→B value is on record for `COc1ccc(/C=C/c2cc(OC)cc(B(O)O)c2)cc1` ? 51

###

- assay.protocol: In vivo ADME/plasma pharmacokinetics in male CD1 mice
- condition.info: male, CD1, mouse, plasma, iv; 1 mg/kg intravenously; read-out: Elimination half-life (converted)
assay.readout: half-life

For the molecule `COc1ccc(/C=C/c2cc(OC)cc(B(O)O)c2)cc1` , what half-life is on record? ~1 h

Numbers sourced from patent US20220213126A1.
